# subject-of-test: pooled human IgG (human IgG1,2,3 and 4)
So I've got a bunch of proteins here, and I need their Enzyme Activity Endpoint Assay (purified): scIgG values.
Note: a bare number is incomplete; add the unit.

protein	observed-result
PRT-667 (protein) MQITSVWTKGVTPLTPEQFRYNNEDVFHAPYLAHQGWYDITKAFNGKDNLLCGAATAGNMLHWWFDQNKEEIEAYLKKHPEKQKIIFNNQELFDLRKAINTKDSQTNSQLFNYFRDKAFPNLSARQLGVMPDLVLDMFINGYYLNLNKTQSTDVNRPYQDKDKRGGIFDHVFTRGDQTTLLTARHDLKNKTLNDISQLIKQELQEGKALALSHTYANVSISHVINLWGADFNAEGNLEAIYVTDSDSDASIGMKKYFVGKNASGHVAISAKKIEGENIGAQVLGLFTLSSGKEIWQKLSLEHHHHHH	896 ng/µL

Now for another entry.
Query: Report measured Enzyme Activity Endpoint Assay (purified): scIgG; entry is PRT-320 (protein) MTITSVWTKGVTPPTPEDFRENNEDVLHAPYVANQGWYDITKTFDGKDNLLCGAATAGNMLHWWFDQNKEEIERYLKKHPEKQKIIFGNQELFDVKAAIDTKDSQTNSKLFDYFRDKAFPNLSARQLGVMPDLVLDMFINGYYLNLGKTQSTDVNRPYQDKDKRGGIFDAVFTRGDQTTLLTARHDLKNKGLNEISDLIKQELTEGKALALSHTYANVRINHVINLWGADFDAEGNLIAIYVTDSDANASIGMKKYFVGRNANGKVAISAKKIEGDNIGAQVLGLFTLSTGQDQWQKLS
Result: 0 ng/µL
